# tested_target: binding partner of C5A (XPA23)
# test_summary: Biacore
Listed binders paired with reported fold affinity vs original
Number first, unit second: that is the form wanted.

Recorded fold affinity vs original, per entry:
binder="C5A (XPA23) VH I51S (antibody, V domains shown) VH: EVQLLESGGGLVQPGGSLRLSCAASGFTFSKYFMFWVRQAPGKGLEWVSVSSPSGGMTRYADSVKGRFTISRDNSKNTLYLQMNSLRAEDTAVYYCARVGYGGNSDYWGQGTLVTVSS VL: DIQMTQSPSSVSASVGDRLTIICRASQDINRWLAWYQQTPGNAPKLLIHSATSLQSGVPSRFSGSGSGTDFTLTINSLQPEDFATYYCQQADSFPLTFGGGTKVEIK" assay_endpoint="fold affinity vs original" result="0.69 fold"
binder="C5A (XPA23) VH Y101W (antibody, V domains shown) VH: EVQLLESGGGLVQPGGSLRLSCAASGFTFSKYFMFWVRQAPGKGLEWVSVISPSGGMTRYADSVKGRFTISRDNSKNTLYLQMNSLRAEDTAVYYCARVGWGGNSDYWGQGTLVTVSS VL: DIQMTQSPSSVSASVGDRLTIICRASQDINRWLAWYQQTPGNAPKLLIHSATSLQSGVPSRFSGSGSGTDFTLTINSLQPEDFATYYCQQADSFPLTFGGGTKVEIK" assay_endpoint="fold affinity vs original" result="0.81 fold"

// below: fold affinity vs original requested for another binder
Reported fold affinity vs original for C5A (XPA23) VH Y107F (antibody, V domains shown) VH: EVQLLESGGGLVQPGGSLRLSCAASGFTFSKYFMFWVRQAPGKGLEWVSVISPSGGMTRYADSVKGRFTISRDNSKNTLYLQMNSLRAEDTAVYYCARVGYGGNSDFWGQGTLVTVSS VL: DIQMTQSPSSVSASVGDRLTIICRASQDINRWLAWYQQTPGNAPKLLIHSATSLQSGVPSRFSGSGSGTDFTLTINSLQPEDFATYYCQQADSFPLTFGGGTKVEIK : what is it?
0.9 fold

Reference source: patent US20110118447A1
